These data points were gathered from patent US11702404B2.

In this section, each of the compounds is paired with its reported Predicted Hepatic Clearance (Pred. Cl.).
# experiment: Microsomal stability, human liver microsomes (predicted hepatic clearance)
# test.context: predicted from in vitro microsomal stability data
measured.endpoint: Predicted Hepatic Clearance (Pred. Cl.) (mL/min/kg)

{"smiles.structure": "CC(=O)N1CCC[C@@H]1Cn1c(Cc2cc(F)c(-c3cccc(OCc4ccc(C#N)cc4F)n3)cc2F)nc2ccc(C(=O)O)cc21", "test.result": 7}
{"smiles.structure": "COCCn1c(Cc2cc(F)c(-c3cccc(OCc4ccc(Cl)cc4F)n3)cc2F)nc2ccc(C(=O)O)cc21", "test.result": 3.67}
{"smiles.structure": "O=C(O)c1cc(F)c2nc(Cc3cc(F)c(-c4nc(OCc5ccc(C(F)(F)F)cc5F)ccc4F)cc3F)n(C[C@@H]3CCO3)c2c1", "test.result": 3.17}
{"smiles.structure": "COCCn1c(Cc2cc(F)c(-c3cccc(OCc4ccc(C(N)=O)cc4F)n3)cc2F)nc2ccc(C(=O)O)cc21", "test.result": 4.17}

---

# target.under.test: UniProt:P43220
# Sequence (P43220 24-463): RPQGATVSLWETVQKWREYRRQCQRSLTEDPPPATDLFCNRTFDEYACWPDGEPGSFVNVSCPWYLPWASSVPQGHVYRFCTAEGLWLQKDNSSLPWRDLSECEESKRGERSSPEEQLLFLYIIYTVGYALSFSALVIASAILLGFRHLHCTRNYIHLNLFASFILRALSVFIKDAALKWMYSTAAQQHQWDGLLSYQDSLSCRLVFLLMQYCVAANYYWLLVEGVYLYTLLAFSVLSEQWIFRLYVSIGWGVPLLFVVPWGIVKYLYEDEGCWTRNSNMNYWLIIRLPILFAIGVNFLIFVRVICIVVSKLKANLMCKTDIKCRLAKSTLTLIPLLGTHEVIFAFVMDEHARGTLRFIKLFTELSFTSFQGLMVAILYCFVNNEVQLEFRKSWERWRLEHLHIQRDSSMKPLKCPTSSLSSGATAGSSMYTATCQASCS
# experiment: GLP-1R activation: cAMP increase in CHO cells stably expressing GLP-1R
# Format: cell-based
# test.context: EC50 (nM)

{"smiles.structure": "CC(C)(C)OCCn1c(Cc2cc(F)c(-c3cccc(OCc4ccc(C#N)cc4F)n3)cc2F)nc2ccc(C(=O)O)cc21", "measurement.unit": "nM", "EC50": 35.3}
{"smiles.structure": "COCCn1c(Cc2cc(F)c(-c3cccc(OCc4ccc(C#N)cc4F)n3)c(F)c2)nc2ccc(C(=O)O)cc21", "measurement.unit": "nM", "EC50": 21.8}
{"smiles.structure": "COCCn1c(Cc2cc(F)c(-c3cccc(OCc4ccc(C#N)nc4)n3)cc2F)nc2ccc(C(=O)O)cc21", "measurement.unit": "nM", "EC50": 11.5}
{"smiles.structure": "COCCn1c(Cc2ccc(-c3cccc(OCc4ccc(COC)cc4F)n3)cc2F)nc2ccc(C(=O)O)cc21", "measurement.unit": "nM", "EC50": 18}
{"smiles.structure": "COCCn1c(Cc2ccc(-c3cccc(OCc4ccc(C#N)cc4F)n3)c(F)c2)nc2ccc(C(=O)O)cc21", "measurement.unit": "nM", "EC50": 10.3}
{"smiles.structure": "COCCn1c(Cc2cc(F)c(-c3cccc(OCc4ccc(C#N)c(F)c4)n3)cc2F)nc2ccc(C(=O)O)cc21", "measurement.unit": "nM", "EC50": 4.13}
{"smiles.structure": "C[C@H](O)Cn1c(Cc2cc(F)c(-c3cccc(OCc4ccc(C#N)cc4F)n3)cc2F)nc2ccc(C(=O)O)cc21", "measurement.unit": "nM", "EC50": 5.19}

---

# experiment: Microsomal stability, human liver microsomes (predicted hepatic clearance)
# test.context: predicted from in vitro microsomal stability data
Please respond with 1 when measured Predicted Hepatic Clearance (Pred. Cl.) is strictly beneath 7 mL/min/kg, and with -1 in all other cases.

{"compound": "COC1(Cn2c(Cc3cc(F)c(-c4cccc(OCc5ccc(C#N)cc5F)n4)cc3F)nc3ccc(C(=O)O)cc32)CCOC1 (stereo not shown)", "cat": -1}
{"compound": "N#Cc1ccc(COc2cccc(-c3cc(F)c(Cc4nc5ccc(C(=O)O)cc5n4[C@H]4CCCOC4)cc3F)n2)c(F)c1", "cat": 1}
{"compound": "COCCn1c(Cn2ccc(-c3cccc(OCc4ccc(C#N)cc4F)n3)cc2=O)nc2ccc(C(=O)O)cc21", "cat": 1}
{"compound": "COCCn1c(Cc2ccc(-c3cccc(OCc4ccc(C#N)cc4F)n3)cc2F)nc2ccc(C(=O)O)nc21", "cat": 1}
{"compound": "COCCn1c(Cc2ccc(-c3cccc(OCc4ccc(C#N)cc4F)n3)cc2C#CC2(C)COC2)nc2ccc(C(=O)O)cc21", "cat": -1}
{"compound": "N#Cc1ccc(COc2cccc(-c3ccc(Cc4nc5ccc(C(=O)O)cc5n4Cc4ncco4)c(F)c3)n2)c(F)c1", "cat": 1}
{"compound": "COCCn1c(Cc2ccc(-c3cccc(OCc4ccc(C#N)cc4F)n3)s2)nc2ccc(C(=O)O)cc21", "cat": -1}

---

In this section, each of the compounds is paired with its reported Predicted Hepatic Clearance (Pred. Cl.).
# experiment: Microsomal stability, human liver microsomes (predicted hepatic clearance)
# test.context: predicted from in vitro microsomal stability data

{"compound": "N#Cc1ccc(COc2cccc(-c3ccn(Cc4nc5ccc(C(=O)O)cc5n4CC4(n5ccnn5)CC4)c(=O)c3)n2)c(F)c1 [Example 421]", "value.comparator": "<", "Predicted Hepatic Clearance (Pred. Cl.) / mL/min/kg": 1.83}
{"compound": "COC[C@H](c1ccccc1)n1c(Cc2cc(F)c(-c3cccc(OCc4ccc(C#N)cc4F)n3)cc2F)nc2ccc(C(=O)O)cc21 [Example 717]", "value.comparator": "=", "Predicted Hepatic Clearance (Pred. Cl.) / mL/min/kg": 7.5}
{"compound": "N#CCC1(Cn2c(Cc3cc(F)c(-c4ccnc(OCc5ccc(C(F)F)cc5F)n4)cc3F)nc3ccc(C(=O)O)cc32)CC1 [Example 751]", "value.comparator": "=", "Predicted Hepatic Clearance (Pred. Cl.) / mL/min/kg": 7.17}

---

In this section, each of the compounds is paired with its reported Predicted Hepatic Clearance (Pred. Cl.).
# experiment: Microsomal stability, human liver microsomes (predicted hepatic clearance)
# test.context: predicted from in vitro microsomal stability data
measured.endpoint: Predicted Hepatic Clearance (Pred. Cl.) (mL/min/kg)

{"compound": "N#Cc1ccc(COc2cccc(-c3cc(F)c(Cc4nc5ccc(C(=O)O)cc5n4CC4CCOCC4)cc3F)n2)c(F)c1", "test.result": 8.83}
{"compound": "N#Cc1ccc(COc2cccc(-c3ccc(Cc4nc5c(F)cc(C(=O)O)cc5n4CC4(C#N)CC4)c(F)c3)n2)c(F)c1", "test.result": 5.67}
{"compound": "CNC(=O)C(Cn1c(Cc2ccc(-c3cccc(OCc4ccc(C#N)cc4F)n3)cc2F)nc2ccc(C(=O)O)cc21)OC (single isomer, unassigned) [Example 336]", "test.result": 7}
{"compound": "N#Cc1ccc(COc2cccc(-c3cc(F)c(Cc4nc5ccc(C(=O)O)cc5n4CC4(F)CCOCC4)cc3F)n2)c(F)c1", "test.result": 2.5}
{"compound": "COCCn1c(Cc2cc(F)c(-c3cccc(OCc4ccc(C(F)F)cc4F)n3)cc2F)nc2c(F)cc(C(=O)O)cc21", "test.result": 1.83}
{"compound": "N#Cc1ccc(COc2cccc(-c3cc(F)c(Cc4nc5ccc(C(=O)O)cc5n4C4CC5(COC5)C4)cc3F)n2)c(F)c1", "test.result": 8.33}

---

In this section, each of the molecules is paired with its reported EC50.
# target.under.test: UniProt:P43220
# experiment: GLP-1R activation: cAMP increase in CHO cells stably expressing GLP-1R
# Assay type: cell-based
# test.context: cAMP increase, CHO cells stably expressing GLP-1R, 10 point dose response, 30 minutes incubation; read-out: EC50
measured.endpoint: EC50

{"smiles.structure": "CC(C)(CF)Cn1c(Cc2ccc(-c3cccc(OCc4ccc(C#N)cc4F)n3)cc2F)nc2ccc(C(=O)NS(=O)(=O)C3CC3)cc21", "test.result": "63 nM"}
{"smiles.structure": "COCCn1c(Cc2cc(F)c(-c3cccc(OCc4ccc(C#N)cc4F)n3)cc2F)nc2cc(OC)c(C(=O)O)cc21", "test.result": "9.29 nM"}
{"smiles.structure": "COc1cc(C#N)ccc1COc1nccc(-c2cc(F)c(Cc3nc4ccc(C(=O)O)cc4n3CC3(CC#N)CC3)cc2F)n1", "test.result": "0.1 nM"}

---

# target.under.test: UniProt:P43220
# experiment: GLP-1R activation: cAMP increase in CHO cells stably expressing GLP-1R
# Format: cell-based
# test.context: cAMP increase, CHO cells stably expressing GLP-1R, 10 point dose response, 30 minutes incubation; read-out: EC50
pEC50: −log10 of the molar value.
Outcome label depends on pEC50 relative to 7: at/above gives yes (1), below gives no (0).

{"smiles.structure": "N#Cc1ccc(COc2cccc(-c3cc(F)c(Cc4nc5ccc(C(=O)O)cc5n4[C@@H]4COC[C@@H]4O)cc3F)n2)c(F)c1", "cat": "yes (1)"}
{"smiles.structure": "N#Cc1cc(F)c(COc2cccc(-c3cc(F)c(Cc4nc5c(F)cc(C(=O)O)cc5n4C[C@@H]4CCO4)cc3F)n2)cc1F", "cat": "yes (1)"}
{"smiles.structure": "COCCn1c(Cc2cc(F)c(-c3cccc(OCc4ccc(C(F)(F)F)nc4)n3)cc2F)nc2ccc(C(=O)O)cc21", "cat": "yes (1)"}
{"smiles.structure": "COCCn1c(Cc2cc(F)c(-c3cccc(OCc4ccc(-c5ccn(C)n5)cc4F)n3)cc2F)nc2ccc(C(=O)O)cc21", "cat": "yes (1)"}
{"smiles.structure": "COCCn1c(Cc2ccc(-c3cccc(OCc4cccc5c4nnn5C)n3)cc2F)nc2ccc(C(=O)O)cc21", "cat": "no (0)"}
{"smiles.structure": "COCCn1c(Cc2ccc(-c3cccc(OCc4cccc(=O)n4C)n3)cc2F)nc2ccc(C(=O)O)cc21", "cat": "no (0)"}
{"smiles.structure": "COCCn1c(Cc2cc(F)c(-c3cccc(OCc4ccc(C(F)F)cc4F)n3)cc2F)nc2c(F)cc(C(=O)O)cc21", "cat": "yes (1)"}
{"smiles.structure": "CCn1cncc1Cn1c(Cc2ccc(-c3cccc(OCc4ccc(C#N)cc4F)c3)cc2F)nc2ccc(C(=O)O)cc21", "cat": "yes (1)"}
{"smiles.structure": "COCCn1c(Cc2ccc(-c3cccc(OCc4ccc(C#N)cc4F)n3)s2)nc2ccc(C(=O)O)cc21", "cat": "no (0)"}
{"smiles.structure": "COCCn1c(Cc2ccc(-c3cccc(OCc4ccc(C#N)cc4F)n3)cc2CF)nc2ccc(C(=O)O)cc21", "cat": "yes (1)"}
{"smiles.structure": "COCCn1c(Cc2cc(F)c(-c3cccc(OCc4ccc(Cl)nc4)n3)cc2F)nc2ccc(C(=O)O)cc21", "cat": "yes (1)"}
